Settings: in n-butanol, 303.15 K

smiles.repr	solubility (mole fraction)
NC(=O)c1ccc(N)cc1	0.00345

---

Conditions: in methanol, 283.15 K

smiles.repr	solubility (mole fraction)
NC(=O)c1ccc(N)cc1	0.0121

---

Conditions: in water, 323.15 K
property.measured: solubility (mole fraction)

smiles.repr	reported.measurement
NC(=O)c1ccc(N)cc1	0.00449

---

Settings: in methanol, 293.15 K

smiles.repr	solubility (mole fraction)
NC(=O)c1ccc(N)cc1	0.0145

---

Conditions: in n-butyl acetate, 318.15 K
property.measured: solubility (mole fraction)

smiles.repr	property.measured	reported.measurement
NC(=O)c1ccc(N)cc1	solubility (mole fraction)	0.00275
